Molecular target: Human αvβ3 (Homo sapiens, UniProt P05106+P06756)
Construct: purchased Chemicon International Inc., Temecula, Calif
Sequence (P06756 31-889 limits assumed): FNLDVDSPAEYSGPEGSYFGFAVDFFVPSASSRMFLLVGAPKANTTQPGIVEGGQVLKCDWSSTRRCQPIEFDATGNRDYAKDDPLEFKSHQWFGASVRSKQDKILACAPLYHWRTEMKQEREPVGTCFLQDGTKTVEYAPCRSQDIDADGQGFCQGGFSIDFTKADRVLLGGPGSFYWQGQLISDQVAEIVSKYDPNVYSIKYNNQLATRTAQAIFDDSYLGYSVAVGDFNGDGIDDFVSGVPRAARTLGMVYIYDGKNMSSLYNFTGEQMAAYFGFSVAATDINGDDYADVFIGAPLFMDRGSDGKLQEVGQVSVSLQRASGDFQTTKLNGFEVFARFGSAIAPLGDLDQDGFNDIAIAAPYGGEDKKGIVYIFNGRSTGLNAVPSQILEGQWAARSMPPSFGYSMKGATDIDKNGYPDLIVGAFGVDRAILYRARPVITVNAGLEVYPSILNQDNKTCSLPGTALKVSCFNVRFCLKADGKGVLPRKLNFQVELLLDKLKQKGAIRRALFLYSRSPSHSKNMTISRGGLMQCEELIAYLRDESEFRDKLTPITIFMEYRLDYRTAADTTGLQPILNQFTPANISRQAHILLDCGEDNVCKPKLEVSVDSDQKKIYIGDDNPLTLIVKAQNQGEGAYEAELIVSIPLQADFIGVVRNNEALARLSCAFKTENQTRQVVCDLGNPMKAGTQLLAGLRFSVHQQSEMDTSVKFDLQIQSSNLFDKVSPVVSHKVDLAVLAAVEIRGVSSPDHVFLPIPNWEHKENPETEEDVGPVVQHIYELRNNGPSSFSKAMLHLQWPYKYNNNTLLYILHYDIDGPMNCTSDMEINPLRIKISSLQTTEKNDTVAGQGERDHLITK
Sequence (P06756 891-1048 partner limits assumed): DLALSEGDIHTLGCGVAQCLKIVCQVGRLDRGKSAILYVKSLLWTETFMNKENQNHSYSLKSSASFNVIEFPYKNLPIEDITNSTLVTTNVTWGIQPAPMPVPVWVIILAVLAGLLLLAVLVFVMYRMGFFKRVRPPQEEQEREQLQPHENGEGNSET
Sequence (P05106 27-788): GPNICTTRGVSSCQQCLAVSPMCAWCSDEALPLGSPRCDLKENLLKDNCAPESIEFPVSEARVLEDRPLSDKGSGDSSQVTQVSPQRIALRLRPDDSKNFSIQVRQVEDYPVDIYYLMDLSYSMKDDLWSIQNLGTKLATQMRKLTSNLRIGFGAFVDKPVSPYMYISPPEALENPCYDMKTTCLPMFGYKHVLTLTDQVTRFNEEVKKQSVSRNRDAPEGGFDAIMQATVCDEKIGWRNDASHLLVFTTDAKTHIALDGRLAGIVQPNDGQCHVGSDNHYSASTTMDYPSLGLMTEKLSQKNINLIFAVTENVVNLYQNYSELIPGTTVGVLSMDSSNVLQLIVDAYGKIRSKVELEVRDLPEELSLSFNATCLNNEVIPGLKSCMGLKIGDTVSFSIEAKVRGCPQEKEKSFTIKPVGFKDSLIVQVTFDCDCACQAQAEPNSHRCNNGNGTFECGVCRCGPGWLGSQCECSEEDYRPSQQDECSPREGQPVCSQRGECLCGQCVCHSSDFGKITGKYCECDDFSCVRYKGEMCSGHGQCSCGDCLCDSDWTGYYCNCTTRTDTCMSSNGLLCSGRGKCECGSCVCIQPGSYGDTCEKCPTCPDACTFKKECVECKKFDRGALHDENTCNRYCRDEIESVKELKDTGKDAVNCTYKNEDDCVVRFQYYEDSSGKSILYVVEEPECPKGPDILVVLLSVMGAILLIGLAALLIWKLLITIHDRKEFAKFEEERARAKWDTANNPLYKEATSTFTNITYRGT
Assay: In vitro solid phase purified αvβ3 binding assay (vitronectin/αvβ3)
Settings: isolated human αvβ3, 5 nM vitronectin; read-out: αvβ3 Binding IC50
measurement type: IC50 (nM)

Previously resolved entries follow.
O=C(NC/C=C/c1ccc2nc(C[C@H](NS(=O)(=O)c3cccs3)C(=O)O)[nH]c(=O)c2c1)NCc1ccccc1 = 1300
COc1ccc(S(=O)(=O)N[C@@H](Cc2nc3ccc(/C=C/CNC(=O)NCc4ccccc4)cc3c(=O)[nH]2)C(=O)O)cc1OC = 38
C=C(CNC(=O)NC(C)C)c1ccc2nc(C[C@H](NS(=O)(=O)c3c(C)c(C)c(C)c(C)c3C)C(=O)O)[nH]c(=O)c2c1 = 150
Cc1c(C)c(C)c(S(=O)(=O)N[C@@H](Cc2nc3ccc(/C=C/CNC4=NCCCCC4)cc3c(=O)[nH]2)C(=O)O)c(C)c1C = 5400
Cc1cccc(Cl)c1S(=O)(=O)N[C@@H](Cc1nc2ccc(/C=C/CNc3ccccn3)cc2c(=O)[nH]1)C(=O)O = 38
O=C(N[C@@H](Cc1nc2ccc(/C=C/CNC3=NCCC3)cc2c(=O)[nH]1)C(=O)O)OCc1ccccc1 = 420
O=C(O)[C@H](Cc1nc2ccc(/C=C/CNc3ccccn3)cc2c(=O)[nH]1)NS(=O)(=O)c1ccc2ccccc2c1 = 23
Cc1noc(C)c1S(=O)(=O)N[C@@H](Cc1nc2ccc(/C=C/CNc3ccccn3)cc2c(=O)[nH]1)C(=O)O = 54
Cn1c(C(CC(=O)O)c2ccccc2)nc2ccc(C=CCNC3=NCCN3)cc2c1=O (stereo not drawn) = 5400
Cc1c(C)c(C)c(S(=O)(=O)N[C@@H](Cc2nc3ccc(/C=C/CNC(N)=O)cc3c(=O)[nH]2)C(=O)O)c(C)c1C = 31

(1) COc1ccc(S(=O)(=O)N[C@@H](Cc2nc3ccc(/C=C/CNc4cc(C)ccn4)cc3c(=O)[nH]2)C(=O)O)cc1OC
(2) Cc1c(C)c(C)c(S(=O)(=O)N[C@@H](Cc2nc3ccc(/C=C/CN4CCCC4=N)cc3c(=O)[nH]2)C(=O)O)c(C)c1C
(3) O=C(O)[C@H](Cc1nc2ccc(/C=C/CNc3ccccn3)cc2c(=O)[nH]1)NS(=O)(=O)c1cccs1
Problem: Could you please sort these 3 entries by IC50 from high to low? Sort and list the labels as requested.
Solution: 2, 3, 1

(1) COc1ccc(S(=O)(=O)N[C@@H](Cc2nc3ccc(/C=C/CNC4=NCCN4)cc3c(=O)[nH]2)C(=O)O)cc1OC
(2) COc1cccc([C@@H](CC(=O)O)c2nc3ccc(/C=C/CNc4ccccn4)cc3c(=O)n2C)c1
Problem: Between 1 and 2 , whose measured IC50 reads higher? In your reply, give the label of the chosen option.
Solution: 2
(2: 18000 nM, 1: 11 nM)

(1) Cc1c(C)c(C)c(S(=O)(=O)N[C@@H](Cc2nc3ccc(CCCNc4ccccn4)cc3c(=O)[nH]2)C(=O)O)c(C)c1C
(2) O=C(N[C@@H](Cc1nc2ccc(/C=C/CCNC3=NCCN3)cc2c(=O)[nH]1)C(=O)O)OCc1ccccc1
(3) O=C(O)[C@H](Cc1nc2ccc(/C=C/CNC3=NCCN3)cc2c(=O)[nH]1)NS(=O)(=O)c1ccc(-c2ccccn2)s1
(4) Cc1c(C)c(C)c(S(=O)(=O)N[C@@H](Cc2nc3ccc(/C=C/CNC4=NCCC4)cc3c(=O)[nH]2)C(=O)O)c(C)c1C
Problem: Could you please order the items by IC50, going from the lowest number to the highest? Sort and list the labels as requested.
Solution: 3, 1, 4, 2
(3: 5.3 nM, 1: 9.6 nM, 4: 18 nM, 2: 210 nM)
